Hi there, I'd appreciate the recorded viability, T/C for every entry that follows.
Test system: 695427-040-R-J1-PDC complex spheroid viability
Assay: Anticancer human tumor 695427-040-R-J1-PDC patient-derived colon adenocarcinoma cell line growth inhibition [RAS]
Conditions: second compound 0.03 µM; first compound 0.0949 µM; hits give low values
From the text: RAS pathway inhibitors in Combinations in Complex Spheroids A high-throughput screen of multi-cell type tumor spheroids was designed to identify active combinations of RAS pathway inhibitors and targeted small molecules. Complex spheroids include a stromal component modeled by human endothelial cells (HUVEC) and fibroblasts modeled by human mesenchymal stem cells (MSCs). […] Compounds. […] If the clinical Cmax for an agent had not been determined, the highest concentration tested was 10 microM. […]
One number for each entry, in %.

CCc1c2c(nc3ccc(O)cc13)-c1cc3c(c(=O)n1C2)COC(=O)[C@]3(O)CC + CCn1c(-c2cc(N3CCN(C)CC3)cnc2C(C)OC)c2c3cc(ccc31)-c1csc(n1)CC(NC(=O)C1CC1C)C(=O)N1CCCC(N1)C(=O)OCC(C)(C)C2 : 41.6
CC1(C)CCC(Nc2ncc(C(F)(F)F)c(-c3c[nH]c4c(P(C)(C)=O)c(C#N)ccc34)n2)CN1 (centres undefined) + CCn1c(-c2cccnc2C(C)OC)c2c3cc(ccc31)N1CCOC(CC(NC(=O)C(C(C)C)N(C)C(=O)C3(F)CCN(C(=O)C#CC(C)(C)N(C)C)CC3)C(=O)N3CCCC(N3)C(=O)OCC(C)(C)C2)C1 : 97.5
CCc1c2c(nc3ccc(O)cc13)-c1cc3c(c(=O)n1C2)COC(=O)[C@]3(O)CC + CCn1c(-c2cccnc2C(C)OC)c2c3cc(ccc31)N1CCOC(CC(NC(=O)C(C(C)C)N(C)C(=O)C3(F)CCN(C(=O)C#CC(C)(C)N(C)C)CC3)C(=O)N3CCCC(N3)C(=O)OCC(C)(C)C2)C1 : 41.7

Consider now this further compound.
Problem: Read off the recorded viability, T/C for CC1(C)CCC(Nc2ncc(C(F)(F)F)c(-c3c[nH]c4c(P(C)(C)=O)c(C#N)ccc34)n2)CN1 (centres undefined) + CCn1c(-c2cc(N3CCN(C)CC3)cnc2C(C)OC)c2c3cc(ccc31)-c1csc(n1)CC(NC(=O)C1CC1C)C(=O)N1CCCC(N1)C(=O)OCC(C)(C)C2
Solution: 55.4

###

Tested on: 695427-040-R-J1-PDC complex spheroid viability
Test: Anticancer human tumor 695427-040-R-J1-PDC cell line growth inhibition [RAS];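 further: viability read after seven days of drug exposure; 100% = DMSO vehicle control viability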
Details: second compound 0.1 µM; first compound 0.00316 µM; hits give low values
measured-parameter: viability, T/C (%)
Numbers only, in %.

Solved entries:
O=C(c1ccc(F)c(F)c1Nc1ccc(I)cc1F)N1CC(O)([C@@H]2CCCCN2)C1 + C#Cc1c(F)ccc2cc(O)cc(-c3ncc4c(N5CC6CCC(C5)N6)nc(OCC56CCCN5CC(F)C6)nc4c3F)c12 : 92.1
C=CC(=O)N1CCN(c2nc(OCC3CCCN3C)nc3c(F)c(-c4nc(N)cc(C)c4C(F)(F)F)c(Cl)cc23)C(C)C1 (stereo not given) + C#Cc1c(F)ccc2cc(O)cc(-c3ncc4c(N5CC6CCC(C5)N6)nc(OCC56CCCN5CC(F)C6)nc4c3F)c12 : 98.4
CC(C)n1nc(-c2ccc3oc(N)nc3c2)c2c(N)ncnc21 + C=CC(=O)N1CCN(c2nc(OCC3CCCN3C)nc3c(F)c(-c4nc(N)cc(C)c4C(F)(F)F)c(Cl)cc23)C(C)C1 : 90
CCN1CCN(Cc2ccc(Nc3ncc(F)c(-c4cc(F)c5nc(C)n(C(C)C)c5c4)n3)nc2)CC1 + C#Cc1c(F)ccc2cc(O)cc(-c3ncc4c(N5CC6CCC(C5)N6)nc(OCC56CCCN5CC(F)C6)nc4c3F)c12 : 93

Okay, next one:
Problem: Write down viability, T/C measured for item CC(C)n1nc(-c2ccc3oc(N)nc3c2)c2c(N)ncnc21 + C#Cc1c(F)ccc2cc(O)cc(-c3ncc4c(N5CC6CCC(C5)N6)nc(OCC56CCCN5CC(F)C6)nc4c3F)c12
Solution: 90
